# credit: ChEMBL document CHEMBL5113486

assay: Selectivity index, ratio of CC50 for cytotoxicity against human THP-1 cells to IC50 for antileishmanial activity against Leishmania donovani infected in human THP-1 cells; type: toxicity, cell-based; conditions: read-out: Ratio CC50/IC50
property_label: selectivity ratio

// below: answered compounds
chemical_smiles | selectivity ratio
COc1ccc(C(=O)Nc2ncc(-c3ccc(OC)cc3)n2C)cc1 | > 1
COc1ccc(-c2cnc(NC(=O)c3ccc(C)cc3)n2C)cc1 | > 3.4
COc1ccc(-c2cnc(NC(=O)C3CCOCC3)n2C)cc1 | > 1
Cn1c(-c2ccccc2Cl)cnc1NC(=O)c1ccc(F)cc1 | > 3.3
Cn1c(-c2ccccc2[N+](=O)[O-])cnc1NC(=O)c1ccc(F)cc1 | 3.2

Per the record, COc1ccc(-c2cnc(NC(=O)c3cccc(Br)c3)n2C)cc1 has selectivity ratio of > 1

Per the record, COc1ccc(-c2cnc(NC(=O)c3ccccn3)n2C)cc1 has selectivity ratio of > 7.7

Per the record, COc1ccc(-c2cnc(NC(=O)c3ccccc3)n2C)cc1 has selectivity ratio of > 3.6

Per the record, CCCCn1c(-c2ccc(OC)cc2)cnc1NC(=O)c1ccc(F)cc1 has selectivity ratio of > 5.6

Per the record, COc1ccc(-c2cnc(NC(=O)c3ccc(F)cc3)n2C(C)C)cc1 has selectivity ratio of > 1

Per the record, COc1ccc(-c2cnc(NC(=O)c3ccc([N+](=O)[O-])cc3)n2C)cc1 has selectivity ratio of > 1

====

Reported CC50 by item:
test: Cytotoxicity against human THP-1 cells assessed as cell growth inhibition; type: toxicity, cell-based

// below: answered compounds
compound | CC50
CCCCn1c(-c2ccc(OC)cc2)cnc1NC(=O)c1ccc(F)cc1 | > 100 µM
COc1ccc(-c2cnc(NC(=O)c3ccc(C)cc3)n2C)cc1 | > 100 µM
COc1ccc(-c2nc3ncc(-c4ccc(F)cc4)cc3[nH]2)cc1 | > 100 µM
Cn1c(-c2ccccc2)cnc1NC(=O)c1ccccc1Cl | > 50 µM
COc1ccc(-c2cnc(NC(=O)c3ccc(F)cc3)n2C2CCCC2)cc1 | > 100 µM
Cn1c(-c2ccc(Cl)cc2)cnc1NC(=O)c1ncc[nH]1 | 52 µM
Cn1c(-c2ccccc2)cnc1NC(=O)c1cc(-c2ccccn2)[nH]n1 | > 50 µM
Cc1ccccc1-c1cnc(NC(=O)c2ccc(F)cc2)n1C | > 50 µM

Per the record, COc1ccc(CN(C)C(=O)NC(=O)c2ccc(F)cc2)cc1 has CC50 of > 50 µM

Per the record, COc1ccc(-c2cnc(NC(=O)c3cccc(F)c3)n2C)cc1 has CC50 of > 100 µM

Per the record, Cn1c(-c2cccc(F)c2)cnc1NC(=O)c1ccc(F)cc1 has CC50 of 58 µM

Per the record, Cn1c(-c2ccccc2)cnc1NC(=O)c1ccc(Br)cc1 has CC50 of > 100 µM

Per the record, Cn1c(-c2ccccc2)cnc1NC(=O)c1ccc(Cl)cc1 has CC50 of > 100 µM

Per the record, CCCCCCCCCCCCCCCCOP(=O)([O-])OCC[N+](C)(C)C [MILTEFOSINE] has CC50 of > 20 µM

====

Reported selectivity ratio by item:
experiment: Selectivity index, ratio of CC50 for cytotoxicity against human THP-1 cells to IC50 for antileishmanial activity against Leishmania donovani infected in human THP-1 cells; format: toxicity, cell-based; details: read-out: Ratio CC50/IC50

// below: answered molecules
chemical_smiles | selectivity ratio
Cn1c(-c2ccc(F)cc2)cnc1NC(=O)c1ccc(F)cc1 | > 1
CCCn1c(-c2ccc(OC)cc2)cnc1NC(=O)c1ccc(F)cc1 | > 1
COc1ccc(-c2cnc(NC(=O)c3ccccc3Br)n2C)cc1 | > 1
COc1ccc(-c2cnc(NC(=O)c3ccccc3Cl)n2C)cc1 | > 3.8
Cn1c(-c2cccc([N+](=O)[O-])c2)cnc1NC(=O)c1ccc(F)cc1 | > 1
O=C(Nc1ncc(-c2ccccc2)o1)c1ccc(F)cc1 | 15

Per the record, COc1ccc(-c2nc3ncc(-c4ccc(F)cc4)cc3[nH]2)cc1 has selectivity ratio of > 1

Per the record, Cc1ccc(-c2cnc(NC(=O)c3ccc(F)cc3)n2C)cc1 has selectivity ratio of 4.5

Per the record, Cn1c(-c2ccccc2)cnc1NC(=O)C1CCCCC1 has selectivity ratio of > 2.2

Per the record, COc1ccc(-c2cnc(NC(=O)c3cnc[nH]3)n2C)cc1 has selectivity ratio of > 1

Per the record, Cn1c(-c2ccccc2)cnc1NC(=O)c1cccc(Cl)c1 has selectivity ratio of > 5.9
